# Measurement target: recombinant human TDP2 (Homo sapiens)
# Sequence (O95551 1-362): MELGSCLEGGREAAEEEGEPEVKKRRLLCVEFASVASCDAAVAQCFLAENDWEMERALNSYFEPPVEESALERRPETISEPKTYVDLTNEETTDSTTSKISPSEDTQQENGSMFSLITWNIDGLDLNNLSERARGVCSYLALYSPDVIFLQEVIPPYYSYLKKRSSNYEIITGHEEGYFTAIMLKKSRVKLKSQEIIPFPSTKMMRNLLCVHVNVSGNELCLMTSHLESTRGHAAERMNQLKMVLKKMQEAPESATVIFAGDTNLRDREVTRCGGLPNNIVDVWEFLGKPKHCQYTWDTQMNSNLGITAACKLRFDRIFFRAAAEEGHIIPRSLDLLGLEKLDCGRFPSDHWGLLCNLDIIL
# Test method notes: Gel-based TDP2 activity assay (removal of 5'-tyrosine from oligonucleotide, PAGE)
# Type: biochemical
# Design: key: TDP2 active (+); -: inactive (−)
# Setup conditions: inhibitor 1 mM
Reported metric: Tdp2 (inhibitor concentration 1 mM)

Entry C[C@H](CCC(=O)NCCc1c[nH]c2ccccc12)[C@H]1CC[C@H]2[C@@H]3CC[C@@H]4C[C@H](OCc5ccccc5)CC[C@]4(C)[C@H]3C[C@H](OCc3ccccc3)[C@]12C , Tdp2 (inhibitor concentration 1 mM) reported as +

Value of measured Tdp2 (inhibitor concentration 1 mM) for the entry COC(=O)CC[C@@H](C)[C@H]1CC[C@H]2[C@@H]3CC[C@@H]4C[C@H](OCc5ccccc5)CC[C@]4(C)[C@H]3C[C@H](OCc3ccccc3)[C@]12C : -

Lab note: measured Tdp2 (inhibitor concentration 1 mM) of C[C@H](CCc1nc(-c2ccc(Br)cc2)no1)[C@H]1CC[C@H]2[C@@H]3CC[C@@H]4C[C@H](OCc5ccccc5)CC[C@]4(C)[C@H]3C[C@H](OCc3ccccc3)[C@]12C was -

According to the records, this compound C[C@H](CCC(=O)Nc1ccc(Br)cc1)[C@H]1CC[C@H]2[C@@H]3CC[C@@H]4C[C@H](OCc5ccccc5)CC[C@]4(C)[C@H]3C[C@H](O)[C@]12C displays Tdp2 (inhibitor concentration 1 mM) of +

Per the record, C[C@H](CCC(=O)O)[C@H]1CC[C@H]2[C@@H]3CC[C@@H]4C[C@H](OCc5ccccc5)CC[C@]4(C)[C@H]3C[C@H](OCc3ccccc3)[C@]12C has Tdp2 (inhibitor concentration 1 mM) of +

New cases:
The value of Tdp2 (inhibitor concentration 1 mM) measured for the compound C[C@H](CCC(=O)O)[C@H]1CC[C@H]2[C@@H]3CC[C@@H]4C[C@H](OCc5ccccc5)CC[C@]4(C)[C@H]3CC(=O)[C@]12C turned out to be +

The compound listed as C[C@H](CCc1nc(Cc2ccc(Br)cc2)no1)[C@H]1CC[C@H]2[C@@H]3CC[C@@H]4C[C@H](OCc5ccccc5)CC[C@]4(C)[C@H]3C[C@H](OCc3ccccc3)[C@]12C has a reported Tdp2 (inhibitor concentration 1 mM) of -
